- System: HCT-116
- Method Notes: Antiproliferative activity against human HCT-116 cells assessed as inhibition of cell growth by Cell-titer Glo luminescent assay
- Format: functional, cell-based
pIC50: −log10 of the molar value.
Listed next: entries and their corresponding pIC50.
Reported Endpoint: pIC50

compound_structure=C[C@H]1[C@@H](CCCN2CCNCC2)O[C@@H]2O[C@]3(C)CC[C@H]4[C@H](C)CC[C@@H]1[C@@]24OO3 target_or_system=HCT-116 reported_endpoint=pIC50 prefix_operator=< reported_value=4.30
compound_structure=C[C@H]1[C@@H](O)O[C@@H]2O[C@@]3(C)CC[C@H]4[C@H](C)CC[C@@H]1[C@@]24OO3 target_or_system=HCT-116 reported_endpoint=pIC50 prefix_operator== reported_value=4.87
compound_structure=C[C@H]1[C@@H](CCCO)O[C@@H]2O[C@]3(C)CC[C@H]4[C@H](C)CC[C@@H]1[C@@]24OO3 target_or_system=HCT-116 reported_endpoint=pIC50 prefix_operator== reported_value=4.42
